Hello, the source for this data is patent US8946282B2, in case you need it.

- testSystem: aurora B (Homo sapiens)
- Sequence (Q96GD4 whole entry): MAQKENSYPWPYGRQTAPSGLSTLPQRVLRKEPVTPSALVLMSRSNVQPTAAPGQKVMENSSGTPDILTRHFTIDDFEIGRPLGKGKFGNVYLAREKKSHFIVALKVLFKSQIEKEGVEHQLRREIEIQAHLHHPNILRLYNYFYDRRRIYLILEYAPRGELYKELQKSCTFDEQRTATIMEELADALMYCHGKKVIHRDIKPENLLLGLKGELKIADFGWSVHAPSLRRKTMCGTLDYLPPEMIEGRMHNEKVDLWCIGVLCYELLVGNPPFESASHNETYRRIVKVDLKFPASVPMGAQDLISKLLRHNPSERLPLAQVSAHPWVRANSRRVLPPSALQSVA
- testMethodNotes: radioisotope-based P81 filter-binding assay, aurora B kinase
- Assay type: biochemical
- experimentalConditions: averaged from two independent dose-response curves; read-out: Enzyme assay IC50 Aur B
pIC50: −log10 of the molar value.
assayReadout: pIC50

CCOC(=O)c1c(C)[nH]c(/C=C2\C(=O)Nc3cc(NC(=O)NC(=O)c4ccc(OC)cc4F)ccc32)c1C :: 5.76

P = COc1ccc(NC(=O)CC(=O)Nc2ccc3c(c2)NC(=O)/C3=C\c2ccc[nH]2)cc1
Q = Cc1[nH]c(/C=C2\C(=O)Nc3cc(NC(=O)c4cccn(-c5ccc(F)cc5)c4=O)ccc32)c(C)c1CC(=O)O
R = COC(=O)CCc1c(C)[nH]c(/C=C2\C(=O)Nc3cc(NC(=O)c4cccn(-c5ccc(F)cc5)c4=O)ccc32)c1C
Place the items in sequence of falling pIC50. Sort and list the labels as requested. Q, P, R

* * *

- testSystem: aurora B (Homo sapiens)
- testMethodNotes: radioisotope-based P81 filter-binding assay, aurora B kinase
- Assay type: biochemical
- experimentalConditions: averaged from two independent dose-response curves; read-out: Enzyme assay IC50 Aur B
pIC50: −log10 of the molar value.
assayReadout: pIC50

O=C(NC(=O)c1ccc(Cl)cc1)Nc1ccc2c(c1)NC(=O)/C2=C\c1ccc[nH]1 [D25] :: 8.19
Cn1cc(C(=O)Nc2ccc3c(c2)NC(=O)/C3=C\c2ccc[nH]2)c(=O)c(-c2ccc(F)cc2)c1 [D138] :: 7.02

P = Cc1[nH]c(/C=C2\C(=O)Nc3cc(NC(=O)c4c[nH]cc(-c5ccc(F)cc5)c4=O)ccc32)c(C)c1CC(=O)N1CCOCC1 [D153]
Q = Cc1[nH]c(/C=C2\C(=O)Nc3cc(NC(=O)c4cccn(-c5ccc(F)cc5)c4=O)ccc32)c(C)c1C(=O)O [D120]
R = O=C1Nc2cc(NC(=O)c3cccn(-c4ccc(F)cc4)c3=O)ccc2/C1=C/c1ccc[nH]1 [D107]
S = Cc1cccc(C(=O)NC(=O)Nc2ccc3c(c2)NC(=O)/C3=C\c2[nH]c(C)c(CCC(=O)O)c2C)c1 [D40]
Place the items in sequence of falling pIC50. Sort and list the labels as requested. S, Q, P, R
(S: 8.72, Q: 7.97, P: 7.13, R: 6.10)

* * *

- testSystem: aurora B (Homo sapiens)
- testMethodNotes: radioisotope-based P81 filter-binding assay, aurora B kinase
- Type: biochemical
- experimentalConditions: averaged from two independent dose-response curves; read-out: Enzyme assay IC50 Aur B
assayReadout: IC50 (µM)

Study these solved cases before continuing.
Cc1[nH]c(/C=C2\C(=O)Nc3cc(NC(=O)N4CCN(C5CC5)C4=O)ccc32)c(C)c1CC(=O)O [D97] :: 0.0027
O=C1Nc2cc(NC(=O)c3cccn(-c4cccc(C(F)(F)F)c4)c3=O)ccc2/C1=C/c1ccc[nH]1 [D113] :: 0.689

1 = Cc1[nH]c(/C=C2\C(=O)Nc3cc(NC(=O)c4c[nH]cc(-c5cc(F)cc(F)c5)c4=O)ccc32)c(C)c1CCC(=O)O [D148]
2 = COc1cc(OC)cc(C(=O)NC(=O)Nc2ccc3c(c2)NC(=O)/C3=C\c2ccc[nH]2)c1 [D30]
Among 1 and 2 , whose measured IC50 is the smaller figure? // caller expects the label of the chosen entry 1
(1: 0.0067 µM, 2: 0.0298 µM)

I = COc1ccc(C(=O)NC(=O)Nc2cc3c(cc2F)/C(=C/c2ccc[nH]2)C(=O)N3)cc1 [D48]
II = Cc1[nH]c(/C=C2\C(=O)Nc3cc(NC(=O)c4c[nH]cc(-c5ccc(F)cc5F)c4=O)ccc32)c(C)c1CCC(=O)O [D147]
Identify the entry with the larger IC50. Options: I and II // caller expects the label of the chosen entry I
